Species: Rattus norvegicus
Experiment: Open TG-GATES - Regimen: Daily Repeat
Type: toxicity, organism-based, Sprague-Dawley
Parameters: regimen Daily Repeat, gender Male, age 6 weeks
Conditions: in vivo, po, 0 mg/kg, […], tissue Blood, route gavage, dose level Control, time 28 day
value_kind: MCH (pg)

> print(dat)
                                   compound  value.kind  unit.of.measure  experimental.value
1  Cn1c(=O)c2[nH]cnc2n(C)c1=O.O [THEOPHYLLINE]         MCH               pg                18.9
2  NC(=O)N/N=C/c1ccc([N+](=O)[O-])o1 [NITROFURAZONE]         MCH               pg                19.5
3  CSc1ccc2c(c1)N(CCC1CCCCN1C)c1ccccc1S2 (stereo not drawn) [THIORIDAZINE]         MCH               pg                19.8
4  NC(=O)N1c2ccccc2C=Cc2ccccc21 [CARBAMAZEPINE]         MCH               pg                20.1
5  COc1ccc2c(c1)c(CC(=O)O)c(C)n2C(=O)c1ccc(Cl)cc1 [INDOMETHACIN]         MCH               pg                18.5
6           CC(=O)Oc1ccccc1C(=O)O [ASPIRIN]         MCH               pg                19.3
7  CN(C)CCC=C1c2ccccc2CCc2ccccc21 [AMITRIPTYLINE]         MCH               pg                19.6
8  COc1ccc(Cc2nccc3cc(OC)c(OC)cc23)cc1OC [PAPAVERINE]         MCH               pg                18.7

* * *

Organism: Rattus norvegicus
Assay: Open TG-GATES - Regimen: Daily Repeat
Assay type: toxicity, organism-based, Sprague-Dawley
Parameters: regimen Daily Repeat, gender Male, age 6 weeks
Conditions: in vivo, po, 0 mg/kg, […], tissue Plasma, route gavage, dose level Control, time 7 day

molecule	K, meq/L
O=C(O)c1cn(C2CC2)c2cc(N3CCNCC3)c(F)cc2c1=O	5
CCc1cc(C(N)=S)ccn1 [ETHIONAMIDE]	4.8
CO[C@H]1/C=C/O[C@@]2(C)Oc3c(C)c(O)c4c(O)c(c(/C=N/N5CCN(C)CC5)c(O)c4c3C2=O)NC(=O)/C(C)=C\C=C\[C@H](C)[C@H](O)[C@@H](C)[C@@H](O)[C@@H](C)[C@H](OC(C)=O)[C@@H]1C	4.9

* * *

Organism: Rattus norvegicus
Test: Open TG-GATES - Regimen: Daily Repeat
Assay type: toxicity, organism-based, Sprague-Dawley
Design: regimen Daily Repeat, gender Male, age 6 weeks
Details: in vivo, po, 0 mg/kg, […], tissue Blood, route gavage, dose level Control, time 14 day
Readings of Ret for the listed compounds
value_kind: Ret (%)

> print(dat)
                                    compound  experimental.value
 1  NC(=O)N1c2ccccc2C=Cc2ccccc21 [CARBAMAZEPINE]                 4.2
 2          C[C@H](CS)C(=O)N1CCC[C@H]1C(=O)O                 4.1
 3  O=C(O)c1cn(C2CC2)c2cc(N3CCNCC3)c(F)cc2c1=O                 5.7
 4                           CCCC(CCC)C(=O)O                 4.7
 5  CSc1ccc2c(c1)N(CCC1CCCCN1C)c1ccccc1S2 (stereo unspecified)                 4.5
 6                  Clc1ccccc1CN1CCc2sccc2C1                 4.3
 7     COc1ccc(Cc2nccc3cc(OC)c(OC)cc23)cc1OC                   5
 8         NC(=O)N/N=C/c1ccc([N+](=O)[O-])o1                 5.7
 9              Cn1c(=O)c2[nH]cnc2n(C)c1=O.O                 4.4
10  O=C(O)c1cc(/N=N/c2ccc(S(=O)(=O)Nc3ccccn3)cc2)ccc1O                 3.9
11                     CC(=O)Oc1ccccc1C(=O)O                 3.4
